Reference source: patent US20250281611A1

assayed_target: T1, nfP2X7 CAR 1
T1 construct: CAR-positive cells gated by the co-expressed EGFR marker; also called nfP2X7 targeted CAR; nfP2X7 CAR on EGFR+ T cells
assay_comment: flow cytometry, anti-His-FITC, MFI on EGFR+ (CAR+) over EGFR- (CAR-) T cells
A collection of binders and their measured HisTag MFI Ratio of EGFR+/EGFR-
// keep it numeric: no unit symbol after the value

binder | HisTag MFI Ratio of EGFR+/EGFR-
CD19 BRIDGE variant B14 (Fab, V domains shown) VH: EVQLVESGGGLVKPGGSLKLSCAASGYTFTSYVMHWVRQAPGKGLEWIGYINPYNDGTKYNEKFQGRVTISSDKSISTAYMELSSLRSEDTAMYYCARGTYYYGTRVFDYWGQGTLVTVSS VL: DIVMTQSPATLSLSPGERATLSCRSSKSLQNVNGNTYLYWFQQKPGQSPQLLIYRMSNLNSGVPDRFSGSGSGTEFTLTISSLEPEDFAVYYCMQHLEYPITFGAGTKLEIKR | 4.5
CD19 BRIDGE variant B26 (Fab, V domains shown) VH: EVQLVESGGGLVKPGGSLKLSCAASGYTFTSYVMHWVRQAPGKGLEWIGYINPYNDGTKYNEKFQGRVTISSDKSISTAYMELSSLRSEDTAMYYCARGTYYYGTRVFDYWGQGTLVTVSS VL: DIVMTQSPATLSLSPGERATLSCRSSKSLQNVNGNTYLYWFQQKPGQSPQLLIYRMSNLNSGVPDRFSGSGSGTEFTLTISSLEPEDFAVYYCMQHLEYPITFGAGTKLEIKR | 4.2
CD19 BRIDGE variant B8 (Fab, V domains shown) VH: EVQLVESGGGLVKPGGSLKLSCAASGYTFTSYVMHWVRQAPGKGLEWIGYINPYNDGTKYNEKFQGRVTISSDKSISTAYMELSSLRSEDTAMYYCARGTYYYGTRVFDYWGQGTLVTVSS VL: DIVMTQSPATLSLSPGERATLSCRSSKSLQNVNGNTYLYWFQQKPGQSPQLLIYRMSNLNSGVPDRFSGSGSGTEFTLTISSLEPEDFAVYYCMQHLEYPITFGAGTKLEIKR | 4.4
CD19 BRIDGE variant B1 (Fab, V domains shown) VH: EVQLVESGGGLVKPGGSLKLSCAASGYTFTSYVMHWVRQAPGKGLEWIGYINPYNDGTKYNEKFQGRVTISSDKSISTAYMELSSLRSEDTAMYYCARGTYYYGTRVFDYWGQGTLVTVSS VL: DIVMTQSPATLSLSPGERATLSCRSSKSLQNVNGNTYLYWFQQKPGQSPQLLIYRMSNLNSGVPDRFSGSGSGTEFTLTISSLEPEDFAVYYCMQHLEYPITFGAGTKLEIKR | 4

# HisTag MFI Ratio of EGFR+/EGFR- lookup, item CD19 BRIDGE variant B3 (Fab, V domains shown) VH: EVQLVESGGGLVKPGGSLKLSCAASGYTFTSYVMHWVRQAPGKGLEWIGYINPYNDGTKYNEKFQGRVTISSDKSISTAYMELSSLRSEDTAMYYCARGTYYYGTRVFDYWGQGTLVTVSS VL: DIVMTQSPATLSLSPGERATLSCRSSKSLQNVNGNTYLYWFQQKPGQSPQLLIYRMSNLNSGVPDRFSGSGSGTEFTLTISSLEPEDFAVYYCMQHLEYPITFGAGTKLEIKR
4.1
